Data provenance is patent US20260070987A1.

Kd values by entry
Target: equine FcRn (large alpha subunit p51) / equine beta-2-microglobulin complex, biotinylated (equine) (UniProt P30441)
Assay: SPR (Biacore), pH 6
# output: bare number, implied unit nM

binder="equine IgG1 Y436L (antibody, part only; not given: variable domains, not shown: another chain or arm of the molecule) constant: ASTTAPKVFALAPGCGTTSDSTVALGCLVSGYFPEPVKVSWNSGSLTSGVHTFPSVLQSSGFYSLSSMVTVPASTWTSETYICNVVHAASNFKVDKRIEPIPDNHQKVCDMSKCPKCPAPELLGGPSVFIFPPNPKDTLMITRTPEVTCVVVDVSQENPDVKFNWYMDGVEVRTATTRPKEEQFNSTYRVVSVLRIQHQDWLSGKEFKCKVNNQALPQPIERTITKTKGRSQEPQVYVLAPHPDELSKSKVSVTCLVKDFYPPEINIEWQSNGQPELETKYSTTQAQQDSDGSYFLYSKLSVDRNRWQQGTTFTCGVMHEALHNHLTQKNVSKNPGK" measured_endpoint=Kd scale_unit=nM recorded_value=12.4
binder="equine IgG1 T286Y (antibody, part only; not given: variable domains, not shown: another chain or arm of the molecule) constant: ASTTAPKVFALAPGCGTTSDSTVALGCLVSGYFPEPVKVSWNSGSLTSGVHTFPSVLQSSGFYSLSSMVTVPASTWTSETYICNVVHAASNFKVDKRIEPIPDNHQKVCDMSKCPKCPAPELLGGPSVFIFPPNPKDTLMITRTPEVTCVVVDVSQENPDVKFNWYMDGVEVRYATTRPKEEQFNSTYRVVSVLRIQHQDWLSGKEFKCKVNNQALPQPIERTITKTKGRSQEPQVYVLAPHPDELSKSKVSVTCLVKDFYPPEINIEWQSNGQPELETKYSTTQAQQDSDGSYFLYSKLSVDRNRWQQGTTFTCGVMHEALHNHYTQKNVSKNPGK" measured_endpoint=Kd scale_unit=nM recorded_value=15
binder="equine IgG1 G426W (antibody, part only; not given: variable domains, not shown: another chain or arm of the molecule) constant: ASTTAPKVFALAPGCGTTSDSTVALGCLVSGYFPEPVKVSWNSGSLTSGVHTFPSVLQSSGFYSLSSMVTVPASTWTSETYICNVVHAASNFKVDKRIEPIPDNHQKVCDMSKCPKCPAPELLGGPSVFIFPPNPKDTLMITRTPEVTCVVVDVSQENPDVKFNWYMDGVEVRTATTRPKEEQFNSTYRVVSVLRIQHQDWLSGKEFKCKVNNQALPQPIERTITKTKGRSQEPQVYVLAPHPDELSKSKVSVTCLVKDFYPPEINIEWQSNGQPELETKYSTTQAQQDSDGSYFLYSKLSVDRNRWQQGTTFTCWVMHEALHNHYTQKNVSKNPGK" measured_endpoint=Kd scale_unit=nM recorded_value=14.7

Entry equine IgG4 D312Y (antibody, part only; not given: variable domains, not shown: another chain or arm of the molecule) constant: ASTTAPKVFPLASHSAATSGSTVALGCLVSSYFPEPVTVSWNSGALTSGVHTFPSVLQSSGLYSLSSMVTVPASSLKSQTYICNVAHPASSTKVDKKIVIKECNGGCPAECLQVGPSVFIFPPKPKDVLMISRTPTVTCVVVDVGHDFPDVQFNWYVDGVETHTATTEPKQEQFNSTYRVVSVLPIQHKYWLSGKEFKCKVNNKALPAPVERTISKPTGQPREPQVYVLAPHRDELSKNKVSVTCLVKDFYPTDIDIEWKSNGQPEPETKYSTTPAQLDSDGSYFLYSKLTVETNRWQQGTTFTCAVMHEALHNHYTEKSVSKSPGK ; Kd = 19.1
